Recorded relative viability for the following compounds
- Test system: NCI-H2228
- experiment_description: relative viability (nuclei count vs DMSO), 5 days (fraction); higher = more cells survive
- test_settings: first compound 0.005 µM

# compound, relative viability
rows = [
    ("COc1cc2nccc(Oc3ccc(NC(=O)Nc4cc(C)on4)c(Cl)c3)c2cc1OC [Tivozanib] + COc1cc2c(Oc3ccc(NC(=O)C4(C(=O)Nc5ccc(F)cc5)CC4)cc3F)ccnc2cc1OCCCN1CCOCC1 [Foretinib] (partner 0.25 µM)", 0.887),
    ("COc1cc2nccc(Oc3ccc(NC(=O)Nc4cc(C)on4)c(Cl)c3)c2cc1OC [Tivozanib] + CS(=O)(=O)N1CCN(Cc2cc3nc(-c4cccc5[nH]ncc45)nc(N4CCOCC4)c3s2)CC1 [Pictilisib] (partner 1 µM)", 0.402),
    ("Nc1ccn([C@@H]2O[C@H](CO)[C@@H](O)[C@@H]2O)c(=O)n1 [Cytarabine] + Cc1cc(Nc2cc(N3CCN(C)CC3)nc(Sc3ccc(NC(=O)C4CC4)cc3)n2)n[nH]1 [Tozasertib] (partner 0.1 µM)", 0.144),
    ("COc1cc2nccc(Oc3ccc(NC(=O)Nc4cc(C)on4)c(Cl)c3)c2cc1OC [Tivozanib] + Nc1nc2[nH]cc(CCc3ccc(C(=O)N[C@@H](CCC(=O)O)C(=O)O)cc3)c2c(=O)[nH]1 [Pemetrexed] (partner 0.2 µM)", 0.31),
    ("Nc1ccn([C@@H]2O[C@H](CO)[C@@H](O)[C@@H]2O)c(=O)n1 [Cytarabine] + CS(=O)(=O)CCNCc1ccc(-c2ccc3ncnc(Nc4ccc(OCc5cccc(F)c5)c(Cl)c4)c3c2)o1 [Lapatinib] (partner 2 µM)", 0.632),
    ("Nc1ccn([C@@H]2O[C@H](CO)[C@@H](O)[C@@H]2O)c(=O)n1 [Cytarabine] + CC1(C)CCC(c2ccc(Cl)cc2)=C(CN2CCN(c3ccc(C(=O)NS(=O)(=O)c4ccc(N[C@H](CCN5CCOCC5)CSc5ccccc5)c(S(=O)(=O)C(F)(F)F)c4)cc3)CC2)C1 [Navitoclax] (partner 0.5 µM)", 0.504),
    ("COc1cc2nccc(Oc3ccc(NC(=O)Nc4cc(C)on4)c(Cl)c3)c2cc1OC [Tivozanib] + O=C(c1cc(Cc2n[nH]c(=O)c3ccccc23)ccc1F)N1CCN(C(=O)C2CC2)CC1 [Olaparib] (partner 8 µM)", 0.669),
]
